- Assay: Cmax in rat at 2 mg/kg, po
- Format: ADME, organism-based
- Parameters: dose 2 mg/kg, route oral
- Measurement Setup: in vivo
Result Type: Cmax (nM)
Reply numerically in nM, unit not repeated.

// `NC(=O)c1cnc(N[C@H](C2CC2)C(F)(F)F)c2c1[nH]c1cc(-c3cnc(N)nc3)ccc12` : Cmax value = 600

----------
- Assay: Clearance in rat at 1 mg/kg, iv
- Type: ADME, organism-based
- Design: dose 1 mg/kg, route intravenous
- Measurement Setup: in vivo
Collected clearance values appear next to each entry.

> print(dat)
                               smiles.entry  recorded.measurement
1  NC(=O)c1cnc(N[C@H](C2CC2)C(F)(F)F)c2c1[nH]c1cc(-c3ccc(N4CCS(=O)(=O)CC4)nn3)ccc12          54 mL/min/kg

# next molecule below
// `NC(=O)c1cnc(N[C@H](C2CC2)C(F)(F)F)c2c1[nH]c1cc(-c3cnc(N4CCOCC4)nc3)ccc12` : clearance value = 15 mL/min/kg
